System: CD2F1 mice, L1210 leukemia ip, survival T/C
Assay: NCI In Vivo Anticancer Drug Screen. Data for tumor model L1210 Leukemia (intraperitoneal) in CD2F1 (CDF1) mice
Settings: endpoint: mean survival time; dose: 50.0 mg/kg/injection; schedule: Q04DX003 (ip); vehicle: saline with Tween-80; higher = longer survival
Method: The antitumor activity of compounds was measured in mice bearing transplantable tumors. Survival or tumor size were measured and the results are expressed as the measurement made in the treated group (T) divided by the measurement made in the vehicle treated control group (C). The tumor model used in this assay is L1210 Leukemia (intraperitoneal) in CD2F1 (CDF1) mice
Toxic doses and inconclusive results are not listed.
Give T/C for every item shown.

T/C for Nc1ncnc(N)c1NC(=O)c1cccc(Cl)c1 ?
100 % of control

Fill in: T/C of COC(=O)C1C(O)C(C)C(O)C(C)(O)C=C(C)C2=C3C(=C(C)C(=O)c4c(O)c(c(C)c(OC(C)=O)c43)NC(=O)C(C)=C/C=C\C(C)(O)C(O)C(C)C1O)OCO2 (stereo not drawn) is ___
101 % of control

Return reported T/C; argument: CCOC(=O)C(C)(C)Oc1nn(Cc2ccccc2)c2ccccc12
102 % of control

What measured T/C goes with CC(C)(C)NC(=S)Nc1ccccc1 ?
100 % of control

What value of measured T/C is listed for O=C(Nc1ccccc1)c1ccc(Cl)c([N+](=O)[O-])c1 ?
89 % of control

Using the record for C=C1CC(=O)N(c2ccc(OC)cc2)C1=O , report its T/C.
107 % of control

Entry under review: CC(=O)Nc1ccc(OC(C)=O)cc1 . Reported T/C?
97 % of control

Need T/C of [Cl][Pt+2][Cl].[NH-]c1ccc(S(N)(=O)=O)cc1.[NH-]c1ccc(S(N)(=O)=O)cc1 , thanks.
98 % of control

So what's the measured T/C for this one? CCCCNC(=O)C1CC2c3cccc4c3C(CN4)CC2N(C)C1 (stereo not drawn)
94 % of control

Any idea what its T/C is? The molecule is [Cl][Pt+2][Cl].[NH-]c1cccc(F)c1.[NH-]c1cccc(F)c1
102 % of control

Could you share which T/C value was measured for CCOc1ccc(/C=C(/C#N)C(N)=O)cc1 ?
97 % of control

Given CN1CCN(C(=O)Nc2ccc(N=Nc3ccccc3)cc2)CC1 , state its recorded T/C.
95 % of control

What value of T/C has been reported for the following molecule? Nc1ncnc(N)c1NC(=O)c1ccc(-c2ccccc2)cc1
94 % of control

---

test system: CD2F1 mice, L1210 leukemia ip, survival T/C; assay: NCI In Vivo Anticancer Drug Screen. Data for tumor model L1210 Leukemia (intraperitoneal) in CD2F1 (CDF1) mice; conditions: endpoint: mean survival time; dose: 400.0 mg/kg/injection; schedule: Q01DX009 (ip); vehicle: saline; higher = longer survival
Inconclusive results and toxic doses are left out.
attribute-measured: T/C

I have this compound here, O=C(O)C1(C(=O)O)CC2CC=CCC2C1 (stereo not given) , and I need its recorded T/C.
87 % of control

Entry under review: O=C(O)/C=C/C(=O)NCCCCCCNC(=O)/C=C/C(=O)O . Reported T/C?
91 % of control

So what does the record say about T/C for NCCc1cc(O)c(O)c(O)c1 ?
119 % of control

What value of T/C has been recorded for this entry: O=[N+]([O-])c1ccc(Cl)c(S(=O)O)c1
103 % of control

Returns the measured T/C for the input compound. Input: CC(C)OC(=S)S
107 % of control

For the compound Cn1cnc([N+](=O)[O-])c1Sc1ncn[nH]1 , what T/C is on record?
104 % of control

Need T/C of CCCCCCCCCCCCc1ccc(CSC(C(=O)OC)C(SCc2ccc(CCCCCCCCCCCC)cc2)C(=O)OC)cc1 (stereo not given) , thanks.
104 % of control

Which T/C value belongs to CN(C)P(=O)(N(C)C)N(C)C ?
107 % of control

I'd like to know its T/C. The compound in question is O=[N+]([O-])c1nccn1CC(O)CO (stereo not given)
103 % of control

# query: T/C of entry Cc1nc2n[nH]c(N)c2nc1C
106 % of control
